system.under.test: Recombinant human IL-1β (BioLegend 579404) (human, UniProt P01584 117-269)
procedure.text: cell-based or functional assay
Starred links: 1 amine or outer side, 2 acyl side, 3 side chain; linkers in the order of their positions; H or OH if unused. Non-standard residues stand in square brackets, D forms with d. No end group written: not given here. Trp4Az = (2S)-2-amino-3-(1H-pyrrolo[3,2-b]pyridin-3-yl)propanoic acid, O=C([C@H](Cc1c[nH]c2cccnc12)N[*:1])[*:2]; dPro(4R-(4-pyridylmethyl)) = O=C(O)[C@H]1C[C@@H](Cc2ccncc2)CN1; Trp(βS-Me,4-F) = C[C@@H](c1c[nH]c2cccc(F)c12)[C@H](N)C(=O)O; Bip(4'-CONH2) = NC(=O)c1ccc(-c2ccc(C[C@H](N)C(=O)O)cc2)cc1; Bip(4'-COOH) = N[C@@H](Cc1ccc(-c2ccc(C(=O)O)cc2)cc1)C(=O)O; Ala(1-bicyclo(1.1.1)pentyl) = N[C@@H](CC12CC(C1)C2)C(=O)O; Ala(pyrimidin-5-yl) = N[C@@H](Cc1cncnc1)C(=O)O; Phe(4-COOH) = N[C@@H](Cc1ccc(C(=O)O)cc1)C(=O)O; Pro(cis-4-F) = O=C(O)[C@@H]1C[C@H](F)CN1; Ala(4-THP) = N[C@@H](CC1CCOCC1)C(=O)O; cisHyp = O=C(O)[C@@H]1C[C@H](O)CN1; d(αMeD) = C[C@@](N)(CC(=O)O)C(=O)O; 4Pal = N[C@@H](Cc1ccncc1)C(=O)O; aThr = C[C@H](O)[C@H](N)C(=O)O; d(αMeS) = C[C@@](N)(CO)C(=O)O; Dab = NCC[C@H](N)C(=O)O; Aib = CC(C)(N)C(=O)O
Listed here are binders together with their documented MRC5 IC50.
Output spec: scalar in pM, unitless text.

# annotated cases, reported MRC5 IC50 shown
cyclo([Bip(4'-COOH)][4Pal][Phe(4-COOH)]G[Pro(cis-4-F)][Trp(βS-Me,4-F)][Aib]S[Trp4Az][Aib][Ala(pyrimidin-5-yl)]Q[Dab]G[dPro(4R-(4-pyridylmethyl))]) (ring closure inferred) [SEQ ID NO: 162] ... 50
cyclo([Bip(4'-CONH2)][4Pal][Phe(4-COOH)]G[Pro(cis-4-F)][Trp(βS-Me,4-F)][Aib]SW[d(αMeS)][Ala(4-THP)]Q[Dab]G[dPro(4R-(4-pyridylmethyl))]) (ring closure inferred; not fully specified (bridges); printed as Bip4CONH2-4Pal-Phe4COOH-G-Proc4F-SbMeW4F-Aib-S-W-daMeS-AlaTHP4-Q-Dab-G-dProc4CH24Pal, cyclic (macrolactam)) [SEQ ID NO: 215] ... 10

Shifting focus to the binder that follows.
For record [Bip(4'-COOH)][Ala(1-bicyclo(1.1.1)pentyl)][Phe(4-COOH)]G[cisHyp][Trp(βS-Me,4-F)][Aib][aThr]W[d(αMeD)][Ala(pyrimidin-5-yl)]Q[Dab]G[dPro(4R-(4-pyridylmethyl))] (lactam (positions not given here); also: macrolactam ring, closure sites not given here) [SEQ ID NO: 182] the listed MRC5 IC50 is 49
